B1: glmS ribozyme (parent)
chain: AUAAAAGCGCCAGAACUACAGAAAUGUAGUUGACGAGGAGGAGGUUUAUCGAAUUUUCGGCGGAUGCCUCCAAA

Variants of: B1
METHOD: KM; higher = weaker cofactor use; RNA array
ASSAY CONDITIONS: with glucosamine-6-phosphate
METRIC: KM (µM)
All answers are understood in µM, so give the number only.

# query: KM of entry `AUAAAAGCGCCAGGACUACAGAAAUGUACUUGACGAGGAGGAGGUUUAUCGAAUUAUCGGCGGAUGCCUCCAAA`
1960

# query: KM of entry `AUAAAAGCGCCAAAAGUACAGAAAUGUAGUUGACGAGGAGGAGGUUUAUCGAAUUUUCGGCGGAUGCCUCCAAA`
1970

# query: KM of entry `AUAAAAGCGCCAGUACUACAGAAAUGUAUUUGACGAGGAGGAGGUUUAUCGAAUUUUCGGCGGAUGCCUCCAAA`
2040

Source listed as the supplement of paper PMC7125110.
